testedSystem: Beta Secretase enzyme (BACE1) (Homo sapiens, UniProt P56817)
Sequence (P56817 46-501): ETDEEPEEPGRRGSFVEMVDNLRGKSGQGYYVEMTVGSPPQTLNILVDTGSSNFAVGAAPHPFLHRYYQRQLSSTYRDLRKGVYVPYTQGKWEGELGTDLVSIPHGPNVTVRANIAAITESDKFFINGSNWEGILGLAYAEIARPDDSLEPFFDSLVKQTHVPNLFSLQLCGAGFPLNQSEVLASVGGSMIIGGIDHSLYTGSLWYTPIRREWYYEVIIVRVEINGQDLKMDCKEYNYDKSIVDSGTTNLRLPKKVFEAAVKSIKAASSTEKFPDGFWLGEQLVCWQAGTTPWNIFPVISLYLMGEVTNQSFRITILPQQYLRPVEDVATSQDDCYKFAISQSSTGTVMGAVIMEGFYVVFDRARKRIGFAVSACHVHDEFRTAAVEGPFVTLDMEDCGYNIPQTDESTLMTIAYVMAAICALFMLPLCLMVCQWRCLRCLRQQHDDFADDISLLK
methodNotes: In vitro enzymatic BACE FRET assay
Format: biochemical
cond: average IC50, enzyme assay; read-out: BACE1 FRET assay IC50
pIC50: −log10 of the molar value.
just bin them by pIC50: low value: < 7; medium value: ≥ 7 and < 9; high value: ≥ 9

# example entries with known answers
>  <smilesStructure>
Cc1cccc(Oc2ccc(F)c([C@]3(C)CS(=O)(=O)C(C)(C)C(N)=N3)c2)n1

>  <cat>
low value

$$$$
>  <smilesStructure>
CC1(C)C(N)=N[C@](C)(c2cc(Nc3cc(Cl)cc4cc(Cl)cnc34)ccc2F)CS1(=O)=O

>  <cat>
medium value

$$$$
>  <smilesStructure>
C[C@@]1(c2cc(Nc3nccc4cc(C#N)cnc34)ccc2F)CS(=O)(=O)C2(CCC2)C(N)=N1

>  <cat>
medium value

$$$$
>  <smilesStructure>
CC1(C)C(N)=N[C@](C)(c2cc(Oc3ncccc3C#N)ccc2F)CS1(=O)=O

>  <cat>
low value

$$$$
>  <smilesStructure>
Cc1nc2c(Nc3ccc(F)c([C@]4(C)CS(=O)(=O)C(C)(C)C(N)=N4)c3)cccc2s1

>  <cat>
low value

$$$$

Assign a category based on measured pIC50 for Cc1cc(OCC(F)(F)F)cnc1C(=O)Nc1cnc(F)c([C@]2(C)CS(=O)(=O)C3(CCC3)C(N)=N2)c1 and give only the class name.
medium value

Assign a category based on measured pIC50 for CC1(C)C(N)=N[C@](C)(c2cc(NC(=O)c3ccc(Cl)cc3F)ccc2F)CS1(=O)=O and give only the class name.
medium value

Assign a category based on measured pIC50 for CC1(C)C(N)=N[C@](CF)(c2cc(NC(=O)c3cnc(OCC(F)F)cn3)ccc2F)CS1(=O)=O and give only the class name.
high value

Assign a category based on measured pIC50 for Cc1c(C(=O)Nc2ccc(F)c([C@]3(CF)CS(=O)(=O)C4(CCC4)C(N)=N3)c2)nc2ccc(Cl)cn12 and give only the class name.
medium value

Assign a category based on measured pIC50 for COCc1cc(Cl)cnc1C(=O)Nc1ccc(F)c([C@]2(C)CS(=O)(=O)C(C)(C)C(N)=N2)c1 and give only the class name.
high value

Assign a category based on measured pIC50 for Cc1ccnc(Oc2ccc(F)c([C@]3(C)CS(=O)(=O)C(C)(C)C(N)=N3)c2)c1 and give only the class name.
low value
